# System: soybean (Glycine max)
# methodDescription: Test D pre-/postemergence plant response
# Type: in vivo
# appliedConditions: Postemergence, 125 g ai/ha; scale 0 to 100, 0 no effect, 100 complete control
property: Plant response rating, Soybean

>>> print(df.to_string())
                             compoundstring  valuereported
0   CC(F)(F)c1cc(-c2ccccc2Oc2ncc(Br)cn2)no1             65
1  FC(F)Oc1cccc(Oc2ncc(Cl)cn2)c1-c1cc(C(F)F)on1             65
2          Cc1cc(-c2ccccc2Oc2ncc(Cl)cn2)on1             75
3       Cc1cc(-c2c(F)cccc2Oc2ncc(Cl)cn2)on1             70
4   Fc1cccc(Oc2ncc(Br)cn2)c1-c1cc(C(F)F)on1             90
5   CC(F)(F)c1cc(-c2ccccc2Oc2ncc(Cl)cn2)on1             45
6         Clc1cnc(Oc2ccccc2-c2cc(Cl)sn2)nc1             85
7       Cc1cc(-c2c(F)cccc2Oc2ncc(Br)cn2)on1             85
8  FC(F)(Cl)c1cc(-c2ccccc2Oc2ncc(Cl)cn2)no1             60
